Test system: 5247 (wt)
Test: Growth inhibition (sensitivity to cytotoxic products) as measure of permeability, wild-type strain (Example 6)
Type: cell-based, Saccharomyces cerevisiae
Settings: Saccharomyces cerevisiae; Example 6, strain 5247 (wt); YNB minimum medium, 28° C., 48 hours, OD 700 nm; read-out: EC50
Listed below: pEC50 values for each entry.
pEC50 here is simply -log10 of the concentration when that concentration is written in mol/L.

> print(dat)
                               entry.smiles  measured.parameter  endpoint.value
1  CO[C@@H]1[C@@H](OC(N)=O)[C@@H](O)[C@H](Oc2ccc3c(O)c(NC(=O)c4ccc(O)c(CC=C(C)C)c4)c(=O)oc3c2C)OC1(C)C               pEC50            3.61

Moving on to another compound below.
Reported pEC50 for `CC[C@H](C)C(=O)O[C@H]1C[C@@H](C)C=C2C=C[C@H](C)[C@H](CC[C@@H]3C[C@@H](O)CC(=O)O3)[C@H]21` : what is it?
3.84
